Measured values drawn from patent US11492335B2 for this set.

- Tested On: recombinant human VAP-1 (Homo sapiens, UniProt Q16853)
- Construct: purchased R&D systems
- Sequence (Q16853 1-763): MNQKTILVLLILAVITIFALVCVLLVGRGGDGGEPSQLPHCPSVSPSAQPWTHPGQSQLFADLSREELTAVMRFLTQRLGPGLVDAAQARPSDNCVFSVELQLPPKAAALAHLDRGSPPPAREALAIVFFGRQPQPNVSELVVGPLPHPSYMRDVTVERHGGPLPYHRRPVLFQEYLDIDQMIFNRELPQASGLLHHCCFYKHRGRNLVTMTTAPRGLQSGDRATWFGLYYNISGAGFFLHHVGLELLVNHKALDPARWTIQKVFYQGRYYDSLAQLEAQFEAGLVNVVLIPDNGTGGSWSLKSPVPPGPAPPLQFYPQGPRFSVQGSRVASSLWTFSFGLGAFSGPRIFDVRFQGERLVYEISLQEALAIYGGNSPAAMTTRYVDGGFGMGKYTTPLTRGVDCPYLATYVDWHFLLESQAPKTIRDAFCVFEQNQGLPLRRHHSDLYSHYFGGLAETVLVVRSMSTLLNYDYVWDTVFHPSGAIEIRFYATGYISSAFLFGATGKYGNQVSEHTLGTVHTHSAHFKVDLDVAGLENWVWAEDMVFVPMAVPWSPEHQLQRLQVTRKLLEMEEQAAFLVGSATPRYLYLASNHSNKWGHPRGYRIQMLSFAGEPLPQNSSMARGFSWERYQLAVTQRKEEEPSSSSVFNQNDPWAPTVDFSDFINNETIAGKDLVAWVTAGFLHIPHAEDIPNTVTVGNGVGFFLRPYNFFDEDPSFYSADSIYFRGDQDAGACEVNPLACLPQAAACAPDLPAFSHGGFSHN
- Assay Notes: Activity on recombinant human VAP-1, Amplex Red HRP-coupled hydrogen peroxide assay, benzylamine substrate
- Format: biochemical
- Test Context: recombinant human VAP-1, benzylamine substrate; read-out: Inhibitory Activity (IC50, nM) human VAP-1
Structures can show the parent of a compound that is named as a salt.
Items are presented alongside their recorded IC50.
State the answer as a number, implicitly in nM.

The following compounds have reported results that may help.
{"Compound": "NC/C(=C\\F)Cn1ncn(-c2cccc(-c3cccc4c3oc3ccccc34)n2)c1=O [Example 203, hydrochloride]", "Tested On": "recombinant human VAP-1 (Homo sapiens, UniProt Q16853)", "Unit Spec": "nM", "Endpoint Result": 1.8}
{"Compound": "NC/C(=C\\F)Cn1ncn(-c2cc(C#Cc3ccncc3)ccn2)c1=O [Example 246, hydrochloride]", "Tested On": "recombinant human VAP-1 (Homo sapiens, UniProt Q16853)", "Unit Spec": "nM", "Endpoint Result": 0.5}
{"Compound": "NC/C(=C\\F)Cn1ncn(-c2cccc(-c3cccc(N4CCNCC4)c3)n2)c1=O [Example 185, hydrochloride]", "Tested On": "recombinant human VAP-1 (Homo sapiens, UniProt Q16853)", "Unit Spec": "nM", "Endpoint Result": 2.4}
{"Compound": "Cc1cc(-c2ccc3c(c2)NC(=O)OC3)cnc1-n1cnn(C/C(=C/F)CN)c1=O [Example 156, hydrochloride]", "Tested On": "recombinant human VAP-1 (Homo sapiens, UniProt Q16853)", "Unit Spec": "nM", "Endpoint Result": 0.3}
{"Compound": "NC/C(=C\\F)Cn1ncn(-c2ncc(-c3ccc(-c4ncon4)cc3)s2)c1=O [Example 229]", "Tested On": "recombinant human VAP-1 (Homo sapiens, UniProt Q16853)", "Unit Spec": "nM", "Endpoint Result": 0.98}
{"Compound": "Cc1cc(-c2cc(C)c3c(c2)CCC(=O)N3)cnc1-n1cnn(C/C(=C/F)CN)c1=O [Example 154, hydrochloride]", "Tested On": "recombinant human VAP-1 (Homo sapiens, UniProt Q16853)", "Unit Spec": "nM", "Endpoint Result": 0.3}

[in] Which value of IC50 has been reported for COc1ccc(C#Cc2cccc(-n3cnn(C/C(=C/F)CN)c3=O)n2)cn1 [Example 247] in the records?
[out] 0.3
